Origin of measurements: PubChem BioAssay (NCI)

List of growth inhibition values.
assay: NCI Yeast Anticancer Drug Screen. Data for the bub3 strain (AID 167); conditions: S. cerevisiae bub3 mutant strain, at 50.0 µM, hits give high values
About 79,000 compounds went through this panel and 15% of them were active in at least one assay; those are over-represented in the sample as a whole.
Respond with the bare value in %.

Consider the worked cases shown below.
Data request: Consider the compound Cc1csc2n(C)c(=O)c3ccccc3[n+]12 . State its measured growth inhibition.
Data returned: -1.75

Data request: Consider the compound C/C=C\C=N\NC(=O)C(=O)N/N=C/C=C\C . State its measured growth inhibition.
Data returned: -8.5

Data request: Consider the compound CC1CCC(OC(=O)CC#N)CC1 (stereo not drawn) . State its measured growth inhibition.
Data returned: 2.35

Data request: Consider the compound CCCCCCCOC(=O)C(CC)CC . State its measured growth inhibition.
Data returned: 2.65

Data request: Consider the compound CC(N)CCN (stereo not drawn) . State its measured growth inhibition.
Data returned: 12.1

Data request: Consider the compound Cc1cccc(-n2cnc3c(N(CCO)CCO)ncnc32)c1 . State its measured growth inhibition.
Data returned: 2.25

Continuing:
Data request: Consider the compound O=C1CCCC2OC2[C@H]2CCCCCC[C@@H]12 (stereo partly drawn) . State its measured growth inhibition.
Data returned: -2.35

Data request: Consider the compound CCOC(=O)c1ccccc1NC . State its measured growth inhibition.
Data returned: -23.4

Data request: Consider the compound CC1(C)C(=O)/C=C\C(=O)C(C)(C)C(=O)/C=C\C(=O)C(C)(C)C(=O)/C=C\C(=O)C(C)(C)C(=O)/C=C\C1=O . State its measured growth inhibition.
Data returned: -13.2

Data request: Consider the compound O=C(CO)CC(=O)C(=O)Nc1ccccc1 . State its measured growth inhibition.
Data returned: -4.15

Data request: Consider the compound CC1(C)CC(=O)C(CC2=C(N)CC(C)(C)CC2=O)=C(N)C1 . State its measured growth inhibition.
Data returned: 10.6

Data request: Consider the compound COC(=O)c1cc2ccccc2[nH]1 . State its measured growth inhibition.
Data returned: -11.9

Data request: Consider the compound c1ccc2[nH]c3c(N=NC4=NCCN4)c4ccccc4c-3nc2c1 . State its measured growth inhibition.
Data returned: -15.3
